Listed below: pEC50 values for each entry.
Molecular target: M1 receptor (Rattus norvegicus, UniProt P08482)
Construct: expressed in transfected cells
Sequence (P08482 1-460): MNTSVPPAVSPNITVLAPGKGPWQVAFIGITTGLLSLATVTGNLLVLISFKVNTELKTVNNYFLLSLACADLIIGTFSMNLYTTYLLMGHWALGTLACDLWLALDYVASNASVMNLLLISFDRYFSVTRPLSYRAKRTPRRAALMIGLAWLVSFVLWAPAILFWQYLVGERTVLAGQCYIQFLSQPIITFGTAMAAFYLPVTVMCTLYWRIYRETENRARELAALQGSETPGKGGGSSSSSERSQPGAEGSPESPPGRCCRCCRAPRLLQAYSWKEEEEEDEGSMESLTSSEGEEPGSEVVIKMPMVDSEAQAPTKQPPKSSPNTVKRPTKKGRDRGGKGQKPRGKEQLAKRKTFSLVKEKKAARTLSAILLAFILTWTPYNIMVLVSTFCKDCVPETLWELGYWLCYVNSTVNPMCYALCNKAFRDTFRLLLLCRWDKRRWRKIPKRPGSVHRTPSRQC
Assay: M1 PAM assay (FLIPR intracellular calcium), rat
Assay type: cell-based
Conditions: rat; modulator activity with EC20 of acetylcholine; FLIPR Ca2+; read-out: EC50 rat PAM
The meaning of pEC50 here: minus log10 of the concentration in molar units.

Cn1cc(-c2ccc(Cn3cc(C(=O)NCC4(O)CCCC4)c4ncccc43)c(F)c2)cn1 = 6.58
Cn1cc(-c2ccc(Cn3cc(C(=O)N[C@H](CO)C(C)(C)C)c4ncccc43)c(F)c2)cn1 = 6.45
CCC(O)CNC(=O)c1cn(Cc2ccc(-c3cnn(C)c3)cc2F)c2cccnc12 (stereo not drawn) = 6.81
Cn1cc(-c2ccc(Cn3cc(C(=O)N[C@H]4CCCC[C@@H]4O)c4ncccc43)c(F)c2)cn1 = 7.46

Challenge: Fill blank: measured pEC50 of the compound "Cn1cc(-c2ccc(Cn3cc(C(=O)Nc4ncccc4O)c4ncccc43)c(F)c2)cn1" is ____.
Response given: 6.50

Challenge: # get_value(readout='pEC50', item= "Cn1cc(-c2ccc(Cn3nc(C(=O)N[C@H]4CCCC[C@@H]4O)c4ncccc43)c(F)c2)cn1" )
Response given: 7.15
